Target: human SGLT1 (Homo sapiens, UniProt P13866)
Construct: expressed in transfected cells
Sequence (P13866 whole entry): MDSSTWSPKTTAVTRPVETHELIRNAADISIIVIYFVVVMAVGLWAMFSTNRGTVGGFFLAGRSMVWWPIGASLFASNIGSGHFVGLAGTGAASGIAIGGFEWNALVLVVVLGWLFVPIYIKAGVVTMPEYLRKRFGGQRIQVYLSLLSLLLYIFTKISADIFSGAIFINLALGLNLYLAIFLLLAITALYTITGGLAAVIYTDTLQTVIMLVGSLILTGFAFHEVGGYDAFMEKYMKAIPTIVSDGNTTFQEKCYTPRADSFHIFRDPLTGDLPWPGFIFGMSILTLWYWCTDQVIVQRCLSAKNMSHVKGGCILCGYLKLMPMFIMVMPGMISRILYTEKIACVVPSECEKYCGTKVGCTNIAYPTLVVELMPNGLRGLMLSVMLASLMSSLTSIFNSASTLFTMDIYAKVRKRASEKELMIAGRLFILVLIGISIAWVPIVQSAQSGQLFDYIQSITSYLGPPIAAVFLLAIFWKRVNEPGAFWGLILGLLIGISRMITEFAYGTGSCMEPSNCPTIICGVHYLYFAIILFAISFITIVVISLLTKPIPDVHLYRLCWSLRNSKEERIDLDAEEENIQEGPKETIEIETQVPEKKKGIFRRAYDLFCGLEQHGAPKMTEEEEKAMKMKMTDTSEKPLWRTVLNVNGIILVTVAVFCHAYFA
Assay: SGLT1 in vitro assay: Na-dependent 14C-AMG uptake in CHO-K1 cells stably expressing human SGLT1
Assay type: cell-based
Conditions: @ 0.3 μM; CHO-K1 cells stably expressing human SGLT1; 14C-AMG uptake
The following ranges of SGLT1 % Inh @ 0.3 μM define the classes used here: Low = under 20%, Mid = from 20% up to 30%, High = 30% and over

Take a look at these entries with their results.
Cc1cc(O)c([C@@H]2O[C@H](CO)C(F)(F)[C@H](O)[C@H]2O)cc1Cc1ccc(-c2ccc(F)cc2)s1 [Compound 68]    Mid
COc1c([C@@H]2O[C@H](CO)C(F)(F)[C@H](O)[C@H]2O)cc(Cc2ccc(N(C)C)cc2)c2c1CCO2 [Compound 185]    Mid

stdin: Returns: class label. Input: OC[C@H]1O[C@@H](c2cc(Cc3ccc(OCF)cc3)c(Cl)cc2O)[C@H](O)[C@@H](O)C1(F)F [Compound 125]
stdout: High

stdin: Returns: class label. Input: CCc1cc(O)c([C@@H]2O[C@H](CO)C(F)(F)[C@H](O)[C@H]2O)cc1Cc1ccc(OC(F)(F)F)cc1 [Compound 104]
stdout: High

stdin: Returns: class label. Input: COC(=O)N1CCc2sc(Cc3cc([C@@H]4O[C@H](CO)C(F)(F)[C@H](O)[C@H]4O)c(OC)cc3Cl)cc2C1 [Compound 65]
stdout: Low

stdin: Returns: class label. Input: CC(=O)N1CCc2sc(Cc3cc([C@@H]4O[C@H](CO)C(F)(F)[C@H](O)[C@H]4O)c(O)cc3Cl)cc2C1 [Compound 72]
stdout: High

stdin: Returns: class label. Input: COc1cc(C)c(Cc2cc3c(s2)CCN(C(=O)N2CCCC2)C3)cc1[C@@H]1O[C@H](CO)C(F)(F)[C@H](O)[C@H]1O [Compound 78]
stdout: Mid

stdin: Returns: class label. Input: COc1cc(Cl)c(Cc2cc3c(s2)CCN(C(C)=O)C3)cc1[C@@H]1O[C@H](CO)C(F)(F)[C@H](O)[C@H]1O [Compound 73]
stdout: Mid

stdin: Returns: class label. Input: CCc1ccc(Cc2cc(C3OC(CO)C(F)(F)C(O)C3O)cc3c2OCC3CO)cc1 (mixture of isomers) [Compound 61]
stdout: High

stdin: Returns: class label. Input: CCc1ccc(Cc2cc([C@@H]3O[C@H](CO)C(F)(F)[C@H](O)[C@H]3O)c(OC)cc2CC)cc1 [Compound 130]
stdout: Mid

stdin: Returns: class label. Input: CN(C)c1ccc(Cc2cc([C@@H]3O[C@H](CO)C(F)(F)[C@H](O)[C@H]3O)c(O)cc2C#N)cc1 [Compound 152]
stdout: High

stdin: Returns: class label. Input: N#Cc1cc(O)c([C@@H]2O[C@H](CO)C(F)(F)[C@H](O)[C@H]2O)cc1Cc1ccc(C2CC2)cc1 [Compound 173]
stdout: Low

stdin: Returns: class label. Input: COc1c([C@@H]2O[C@H](CO)C(F)(F)[C@H](O)[C@H]2O)cc(Cc2ccc(C3CC3)cc2)c2c1CCO2 [Compound 183]
stdout: High

stdin: Returns: class label. Input: OC[C@H]1O[C@@H](c2cc(Cc3ccc([C@@H]4CCOC4)cc3)c(Cl)cc2O)[C@H](O)[C@@H](O)C1(F)F [Compound 46]
stdout: Low

stdin: Returns: class label. Input: CCc1ccc(Cc2cc([C@@H]3O[C@H](CO)C(F)(F)[C@H](O)[C@H]3O)c(OC)c3c2OCC3)cc1 [Compound 38]
stdout: High

stdin: Returns: class label. Input: COC(=O)N1CCc2sc(Cc3cc([C@@H]4O[C@H](CO)C(F)(F)[C@H](O)[C@H]4O)c(O)cc3Cl)cc2C1 [Compound 64]
stdout: Low

stdin: Returns: class label. Input: COc1cc(OC)c([C@@H]2O[C@H](CO)C(F)(F)[C@H](O)[C@H]2O)cc1Cc1cc2c(s1)CCN(C(C)=O)C2 [Compound 77]
stdout: Mid

stdin: Returns: class label. Input: OC[C@H]1O[C@@H](c2cc3c(c(Cc4ccc(OCF)cc4)c2)OCC3)[C@H](O)[C@@H](O)C1(F)F [Compound 146]
stdout: High

stdin: Returns: class label. Input: CN(C)c1ccc(Cc2cc([C@@H]3O[C@H](CO)C(F)(F)[C@H](O)[C@H]3O)cc3c2OCC3)cc1 [Compound 179]
stdout: Mid

stdin: Returns: class label. Input: COc1ccc(Cc2ccc(O)c([C@@H]3O[C@H](CO)C(F)(F)[C@H](O)[C@H]3O)c2)cc1 [Compound 86]
stdout: Low

stdin: Returns: class label. Input: Cc1ccc([C@@H]2O[C@H](CO)C(F)(F)[C@H](O)[C@H]2O)cc1Cc1cc2c(s1)CCN(C(=O)C1CCCC1)C2 [Compound 84]
stdout: Mid

stdin: Returns: class label. Input: OC[C@H]1O[C@@H](c2cc(Cc3ccc(OC(F)(F)F)cc3)c(Cl)cc2O)[C@H](O)[C@@H](O)C1(F)F [Compound 105]
stdout: High

stdin: Returns: class label. Input: CCOc1ccc(Cc2cc([C@@H]3O[C@H](CO)C(F)(F)[C@H](O)[C@H]3O)c(OC)cc2C)cc1 [Compound 49]
stdout: Mid

Sourced from patent US20210238170A1
